- assay-procedure: Cytotoxicity against human ovarian cancer cells after 48 hrs by sulforhodamine B assay
- Format: functional
- stated-conditions: Cancer cell lines
measured-property: TGI (µM)
Record the value in µM, omitting the unit from your answer.

Query: Report TGI for N#Cc1cnn(C(=O)c2nn(-c3ccc(Cl)cc3)cc2O)c1N please.
Response: 19.6

Query: What do we get for Cc1cc(C)n(C(=O)c2nn(-c3ccc(Cl)cc3)cc2O)n1 ?
Response: 87.8

Query: Now the compound O=C1CC(=O)N(C(=O)c2nn(-c3ccc(Cl)cc3)cc2O)N1
Response: 84

Query: # repeat for Cc1c2c(nn1C(=O)c1nn(-c3ccc(Cl)cc3)cc1O)-c1ccccc1CC2
Response: 83.6

Query: Same for O=C(c1nn(-c2ccc(Cl)cc2)cc1O)n1nc(-c2ccco2)cc1C(F)(F)F
Response: 94.5

Query: Subsequent entry: CC1=NN(C(=O)c2nn(-c3ccc(Cl)cc3)cc2O)C(=O)C1
Response: 83.8

###

What GI50 was measured for each of the following?
- Tested on: LOX IMVI
- assay-procedure: Growth inhibition of human LOXIMVI cells after 48 hrs by sulforhodamine B assay
- Assay type: functional
# number only, unit µM dropped from output

Query: Which GI50 reading was recorded for the molecule Cc1c2c(nn1C(=O)c1nn(-c3ccc(Cl)cc3)cc1O)-c1ccccc1CC2 ?
Response: 0.075

Query: Then what about the molecule O=C(c1nn(-c2ccc(Cl)cc2)cc1O)n1nc(-c2ccco2)cc1C(F)(F)F ?
Response: 2.37

Query: Likewise for O=C1CC(=O)N(C(=O)c2nn(-c3ccc(Cl)cc3)cc2O)N1 ?
Response: 1.37

Query: Next record, please: CC1=NN(C(=O)c2nn(-c3ccc(Cl)cc3)cc2O)C(=O)C1
Response: 1.55

Query: Ok, now N#Cc1cnn(C(=O)c2nn(-c3ccc(Cl)cc3)cc2O)c1N
Response: 0.44

Query: Now this one: Cc1cc(C)n(C(=O)c2nn(-c3ccc(Cl)cc3)cc2O)n1
Response: 3.94

###

- Test system: SNB-75
- assay-procedure: Growth inhibition of human SNB75 cells after 48 hrs by sulforhodamine B assay
- Format: functional
- stated-conditions: SNB-75, 48 h
For each of the molecules below, state its GI50.
Give just the number in nM; leave the unit off.

Query: Any idea what its GI50 is? The molecule is O=C(c1nn(-c2ccc(Cl)cc2)cc1O)n1nc(-c2ccco2)cc1C(F)(F)F
Response: 820

Query: # iterate: N#Cc1cnn(C(=O)c2nn(-c3ccc(Cl)cc3)cc2O)c1N
Response: 250

Query: Input CC1=NN(C(=O)c2nn(-c3ccc(Cl)cc3)cc2O)C(=O)C1
Response: 530

Query: Again, but for O=C1CC(=O)N(C(=O)c2nn(-c3ccc(Cl)cc3)cc2O)N1
Response: 240

Query: And then Cc1cc(C)n(C(=O)c2nn(-c3ccc(Cl)cc3)cc2O)n1 , what is it?
Response: 3520

Query: Repeat for the following molecule: Cc1c2c(nn1C(=O)c1nn(-c3ccc(Cl)cc3)cc1O)-c1ccccc1CC2
Response: 29

###

- assay-procedure: Cytotoxicity against human melanoma cells after 48 hrs by sulforhodamine B assay
- Type: functional
- stated-conditions: Melanoma cell
Please go through the items and note down their log10(GI50).
The base-10 logarithm of GI50, taken with GI50 in nM, is what appears here.

Query: Need log10(GI50), item O=C1CC(=O)N(C(=O)c2nn(-c3ccc(Cl)cc3)cc2O)N1
Response: 3.20

Query: Now give it for O=C(c1nn(-c2ccc(Cl)cc2)cc1O)n1nc(-c2ccco2)cc1C(F)(F)F too.
Response: 3.62

Query: Follow-up item: Cc1cc(C)n(C(=O)c2nn(-c3ccc(Cl)cc3)cc2O)n1
Response: 3.69

Query: Same question, N#Cc1cnn(C(=O)c2nn(-c3ccc(Cl)cc3)cc2O)c1N this time
Response: 2.66

Query: // query: Cc1c2c(nn1C(=O)c1nn(-c3ccc(Cl)cc3)cc1O)-c1ccccc1CC2
Response: 2.15

Query: Now try CC1=NN(C(=O)c2nn(-c3ccc(Cl)cc3)cc2O)C(=O)C1 .
Response: 3.26

The values you see were collected from ChEMBL document CHEMBL1156332.
